- subject-of-test: T1, human glypican-3 (GPC3) (human, UniProt P51654 25-554)
- T1 construct: Endogenous on JHH-7, JHH-5, HepG2 and NCI-H446 tumour cells, or transiently expressed on CHO-S cells from a pTT5 plasmid; also called hGPC3; huGPC3
- test-method-notes: flow cytometry on JHH-7 cells (GPC3-high);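 note: antibody binding at 4 °C for 24 h, detected with anti-human AF647 secondary, geometric mean fluorescence of live cells versus antibody concentration, fitted as specific binding with Hill slope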
measurement-label: Bmax (MFI)
Unit MFI implied. Number only.

// Bmax (MFI) lookup, key: H18L6_LC_N33H mAb, v40218 (antibody, human IgG1, kappa, V domains shown, M3-H18L6 chains with the stated light chain point mutation, IgG1/kappa) VH: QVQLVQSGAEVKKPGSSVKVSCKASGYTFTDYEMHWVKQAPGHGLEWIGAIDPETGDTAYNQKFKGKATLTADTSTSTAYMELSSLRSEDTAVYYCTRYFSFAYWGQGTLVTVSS VL: EIVLTQSPATLSLSPGERATISCRSSQSLRHSHGNTYLQWYQQKPGQAPRLLIYKVSNRFSGVPARFSGSGSGTDFTLTISSLEPEDFAVYFCYQSKHVPYTFGGGTKVEIKR
8070

Consider the binder H18L6_LC_N33R mAb, v40216 (antibody, human IgG1, kappa, V domains shown, M3-H18L6 chains with the stated light chain point mutation, IgG1/kappa) VH: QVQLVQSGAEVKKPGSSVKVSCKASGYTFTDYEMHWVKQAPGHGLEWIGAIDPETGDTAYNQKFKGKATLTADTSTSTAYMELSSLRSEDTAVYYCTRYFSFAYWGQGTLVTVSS VL: EIVLTQSPATLSLSPGERATISCRSSQSLRHSRGNTYLQWYQQKPGQAPRLLIYKVSNRFSGVPARFSGSGSGTDFTLTISSLEPEDFAVYFCYQSKHVPYTFGGGTKVEIKR and give its measured Bmax (MFI).
9650

For the binder H18L6_LC_G34T mAb, v40209 (antibody, human IgG1, kappa, V domains shown, M3-H18L6 chains with the stated light chain point mutation, IgG1/kappa) VH: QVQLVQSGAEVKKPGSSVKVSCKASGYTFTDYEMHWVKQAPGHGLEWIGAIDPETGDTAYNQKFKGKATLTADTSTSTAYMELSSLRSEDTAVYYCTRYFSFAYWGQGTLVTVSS VL: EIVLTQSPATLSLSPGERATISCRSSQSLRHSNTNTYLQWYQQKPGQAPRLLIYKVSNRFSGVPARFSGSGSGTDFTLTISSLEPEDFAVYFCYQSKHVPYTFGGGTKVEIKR , what Bmax (MFI) is on record?
10900
